- Method Summary: Glutathione peroxidase-like activity assessed as decrease in NADPH level at 20 uM in the presence of H2O2 and glutathione reductase by UV-VIS spectrophotometer analysis (reference value: 37 microM/min)
- Format: physicochemical
Mark true (1) for reported Activity of 60 µM/min or greater; mark false (0) for anything smaller.

Molecule	Class Name
O=C1NC(=[Se])NC1Cc1ccc(F)cc1 (stereo not given)	false (0)
O=C1NC(=[Se])NC1Cc1ccc(C(F)(F)F)cc1 (stereo not given)	true (1)
O=C1NC(=[Se])NC1Cc1ccc(Cl)cc1 (stereo not given)	false (0)
Cc1ccc(CC2NC(=[Se])NC2=O)cc1 (stereo not given)	false (0)
O=c1c2ccccc2[se]n1-c1ccccc1 [EBSELEN]	true (1)
O=C1NC(=[Se])NC1Cc1cccc2ccccc12 (stereo not given)	false (0)
COc1ccc(CC2NC(=[Se])NC2=O)cc1 (stereo not given)	false (0)
O=C1NC(=[Se])NC1Cc1ccc(Br)cc1 (stereo not given)	false (0)
O=C1NC(=[Se])NC1Cc1ccccc1 (stereo not given)	false (0)
NCC[Se][Se]CCN	false (0)

---

- Method Summary: Glutathione peroxidase-like activity assessed as time to reach completion of the linear part at 20 uM in presence of cumene hydroperoxide by UV-VIS spectrophotometer analysis
- Assay type: physicochemical
Mark MET for reported Time of 400 s or greater; mark NOT MET for anything smaller.

Compound	Class Name
O=C1NC(=[Se])NC1Cc1cccc2ccccc12 (configuration not stated)	NOT MET
O=C1NC(=[Se])NC1Cc1ccccc1 (configuration not stated)	MET
O=C1NC(=[Se])NC1Cc1ccc(Cl)cc1 (configuration not stated)	NOT MET
Cc1ccc(CC2NC(=[Se])NC2=O)cc1 (configuration not stated)	NOT MET
O=c1c2ccccc2[se]n1-c1ccccc1	NOT MET
O=C1NC(=[Se])NC1Cc1ccc(F)cc1 (configuration not stated)	MET

---

- Method Summary: Antioxidant activity assessed as rate constant
- Assay type: functional

Compound	K, s⁻¹
O=C1NC(=[Se])NC1Cc1ccc(Cl)cc1 (configuration not stated)	2.28
O=C1NC(=[Se])NC1Cc1cccc2ccccc12 (configuration not stated)	0.84
O=C1NC(=[Se])NC1Cc1ccc(F)cc1 (configuration not stated)	0.89
O=C1NC(=[Se])NC1Cc1ccccc1 (configuration not stated)	0.46
COc1ccc(CC2NC(=[Se])NC2=O)cc1 (configuration not stated)	1.2
O=C1NC(=[Se])NC1Cc1ccc(C(F)(F)F)cc1 (configuration not stated)	1.6
N[C@@H](CCC(=O)N[C@@H](CS)C(=O)NCC(=O)O)C(=O)O	0.53
